- system under test: 5-HT2B receptor (Homo sapiens)
- Construct: host or cells: CHO-K1
- Sequence (P41595 whole entry): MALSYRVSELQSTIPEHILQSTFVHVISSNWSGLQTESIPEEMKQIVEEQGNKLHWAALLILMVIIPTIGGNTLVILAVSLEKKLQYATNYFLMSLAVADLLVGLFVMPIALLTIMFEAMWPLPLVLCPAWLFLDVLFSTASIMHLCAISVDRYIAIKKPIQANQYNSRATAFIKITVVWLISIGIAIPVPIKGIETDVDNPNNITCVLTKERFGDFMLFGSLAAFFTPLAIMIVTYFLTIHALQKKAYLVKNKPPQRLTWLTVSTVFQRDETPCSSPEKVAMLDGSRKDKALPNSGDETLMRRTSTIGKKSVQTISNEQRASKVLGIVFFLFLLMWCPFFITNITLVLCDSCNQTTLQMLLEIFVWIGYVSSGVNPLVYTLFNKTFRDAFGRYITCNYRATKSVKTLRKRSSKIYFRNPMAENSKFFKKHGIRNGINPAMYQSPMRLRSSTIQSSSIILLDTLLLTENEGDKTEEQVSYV
- test name: cell-based
- conditions: agonist activity, Ca2+ flux, CHO-K1 cells
readout name: Emax (%)

| structure string | system under test | readout name | reading unit | reading |
| --- | --- | --- | --- | --- |
| CCCN(CCC)CCc1c[nH]c2cc(C)c(OC)cc12 | 5-HT2B receptor (Homo sapiens) | Emax | % | 56.8 |
| Cc1nc2c(ccc3[nH]cc(CCN(C)C(C)C)c32)o1 | 5-HT2B receptor (Homo sapiens) | Emax | % | 22.4 |
| COc1ccc(F)c2[nH]cc(CCN(C)C(C)C)c12 | 5-HT2B receptor (Homo sapiens) | Emax | % | 3.67 |
| Cc1ccc2[nH]cc(CCN(C)C(C)C)c2c1O | 5-HT2B receptor (Homo sapiens) | Emax | % | 2.07 |
| CCN(C)CCc1c[nH]c2c(F)cc(OC)cc12 | 5-HT2B receptor (Homo sapiens) | Emax | % | 16.4 |
| CN(C)CCc1c[nH]c2cc3ccoc3cc12 | 5-HT2B receptor (Homo sapiens) | Emax | % | -1.07 |
| CCN(C)CCc1c[nH]c2ccc(OC)c(C)c12 | 5-HT2B receptor (Homo sapiens) | Emax | % | 30.9 |
| Cc1ccc2[nH]cc(CCN(C(C)C)C(C)C)c2c1O | 5-HT2B receptor (Homo sapiens) | Emax | % | 66.9 |
| COc1ccc2[nH]cc(CCN(C)C(C)C)c2c1C | 5-HT2B receptor (Homo sapiens) | Emax | % | 45.4 |
| CCCN(C)CCc1c[nH]c2ccc(C)c(O)c12 | 5-HT2B receptor (Homo sapiens) | Emax | % | 6.22 |
| COc1ccc(F)c2[nH]cc(CCN(C)C)c12 | 5-HT2B receptor (Homo sapiens) | Emax | % | 4.06 |
| CCN(C)CCc1c[nH]c2ccc(F)c(OC)c12 | 5-HT2B receptor (Homo sapiens) | Emax | % | 25.1 |
| CN(C)CCc1c[nH]c2cc3c(cc12)OCC3 | 5-HT2B receptor (Homo sapiens) | Emax | % | 2.92 |
| COc1cc(F)cc2[nH]cc(CCN(C(C)C)C(C)C)c12 | 5-HT2B receptor (Homo sapiens) | Emax | % | 128 |
| CC(C)N(CCc1c[nH]c2ccc(F)c(F)c12)C(C)C | 5-HT2B receptor (Homo sapiens) | Emax | % | 155 |
| COc1c(C)ccc2[nH]cc(CCN(C(C)C)C(C)C)c12 | 5-HT2B receptor (Homo sapiens) | Emax | % | 70.2 |
| CN(C)CCc1c[nH]c2c(F)c(F)ccc12 | 5-HT2B receptor (Homo sapiens) | Emax | % | 3.79 |
| CCN(C)CCc1c[nH]c2ccc3ocnc3c12 | 5-HT2B receptor (Homo sapiens) | Emax | % | 10.5 |
| CCN(CCc1c[nH]c2ccc(C)c(OC)c12)C(C)C | 5-HT2B receptor (Homo sapiens) | Emax | % | 61.5 |
| COc1c(F)ccc2[nH]cc(CCN(C(C)C)C(C)C)c12 | 5-HT2B receptor (Homo sapiens) | Emax | % | 96.3 |
| COc1ccc(C)c2[nH]cc(CCN(C(C)C)C(C)C)c12 | 5-HT2B receptor (Homo sapiens) | Emax | % | 30 |
